target.or.system: Histone deacetylase 1 (Homo sapiens, UniProt Q13547)
Sequence (Q13547 whole entry): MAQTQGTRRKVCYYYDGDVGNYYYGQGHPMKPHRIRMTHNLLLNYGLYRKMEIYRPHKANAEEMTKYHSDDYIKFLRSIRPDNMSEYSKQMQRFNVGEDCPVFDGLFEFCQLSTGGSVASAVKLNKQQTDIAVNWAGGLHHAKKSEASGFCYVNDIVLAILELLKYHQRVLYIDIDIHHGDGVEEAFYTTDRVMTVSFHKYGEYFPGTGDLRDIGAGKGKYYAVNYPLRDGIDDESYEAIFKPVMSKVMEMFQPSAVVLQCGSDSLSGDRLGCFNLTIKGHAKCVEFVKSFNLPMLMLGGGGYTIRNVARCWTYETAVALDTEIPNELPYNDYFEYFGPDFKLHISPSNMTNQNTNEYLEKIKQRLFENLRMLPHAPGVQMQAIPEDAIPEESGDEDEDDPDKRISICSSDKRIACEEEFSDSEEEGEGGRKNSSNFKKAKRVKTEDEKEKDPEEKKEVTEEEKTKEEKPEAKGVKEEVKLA
assay.name: Inhibition of recombinant full length human HDAC1 expressed in baculovirus infected Sf9 cells using FAM-RHKK-Ac as substrate incubated for 17 hrs by electrophoretic mobility shift assay
quantity.measured: IC50 (nM)
One number for each entry, in nM.

Give its IC50 value. Item: CC(C)(C)c1ccc(C(=O)Nc2ccc(C(=O)NO)cc2)cc1
605

----------
Would you kindly list IC50 for each of these compounds?
target.or.system: Protein deacetylase HDAC6 (Homo sapiens, UniProt Q9UBN7)
Sequence (Q9UBN7 whole entry): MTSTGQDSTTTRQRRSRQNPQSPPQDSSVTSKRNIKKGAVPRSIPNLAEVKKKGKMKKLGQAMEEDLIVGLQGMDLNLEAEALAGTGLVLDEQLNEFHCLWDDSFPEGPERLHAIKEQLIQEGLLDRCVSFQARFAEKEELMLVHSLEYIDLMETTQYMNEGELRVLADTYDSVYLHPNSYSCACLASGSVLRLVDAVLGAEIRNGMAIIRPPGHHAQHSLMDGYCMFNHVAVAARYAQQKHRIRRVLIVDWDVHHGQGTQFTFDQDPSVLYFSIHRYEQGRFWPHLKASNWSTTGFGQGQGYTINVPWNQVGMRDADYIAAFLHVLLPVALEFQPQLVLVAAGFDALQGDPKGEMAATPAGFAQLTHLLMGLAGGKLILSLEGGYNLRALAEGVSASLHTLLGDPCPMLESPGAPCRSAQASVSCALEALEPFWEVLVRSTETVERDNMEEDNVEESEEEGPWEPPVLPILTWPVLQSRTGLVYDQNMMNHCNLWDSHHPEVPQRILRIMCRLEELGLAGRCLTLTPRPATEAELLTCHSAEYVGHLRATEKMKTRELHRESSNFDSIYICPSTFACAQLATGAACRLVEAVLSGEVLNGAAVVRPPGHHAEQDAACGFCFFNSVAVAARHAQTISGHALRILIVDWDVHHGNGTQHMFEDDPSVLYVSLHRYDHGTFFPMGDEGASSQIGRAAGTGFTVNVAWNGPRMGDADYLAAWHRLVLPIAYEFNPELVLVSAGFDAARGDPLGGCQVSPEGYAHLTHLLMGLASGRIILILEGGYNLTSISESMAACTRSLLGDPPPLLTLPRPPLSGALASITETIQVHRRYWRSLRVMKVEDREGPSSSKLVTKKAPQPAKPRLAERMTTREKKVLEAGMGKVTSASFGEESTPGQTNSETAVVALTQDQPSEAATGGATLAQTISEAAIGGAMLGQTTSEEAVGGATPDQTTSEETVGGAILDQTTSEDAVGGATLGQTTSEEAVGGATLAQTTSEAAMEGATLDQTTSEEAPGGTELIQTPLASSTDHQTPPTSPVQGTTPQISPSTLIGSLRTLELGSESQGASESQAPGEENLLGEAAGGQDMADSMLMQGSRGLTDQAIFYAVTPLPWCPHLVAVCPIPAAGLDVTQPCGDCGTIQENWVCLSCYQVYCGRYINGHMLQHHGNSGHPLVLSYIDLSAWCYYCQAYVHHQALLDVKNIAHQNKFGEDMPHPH
assay.name: Inhibition of recombinant full length human HDAC6 expressed in baculovirus infected Sf9 cells using FAM-RHKK-Ac as substrate incubated for 5 hrs by electrophoretic mobility shift assay

- chem.smiles: "CC(C)(C)c1ccc(C(=O)Nc2ccc(C(=O)NO)cc2)cc1"
  IC50: "24.4 nM"
- chem.smiles: "CN(C(=O)CN(C)S(=O)(=O)c1ccc(F)cc1)c1ccc(C(=O)NO)cc1"
  IC50: "117 nM"

I have 3 compounds here; please give me IC50 for each one.
1. CC(C)(C)c1ccc(CNc2ccc(C(=O)NO)cc2)cc1
2. CC(C)(C)c1ccc(CN(C(=O)CN(Cc2c(F)c(F)c(F)c(F)c2F)S(C)(=O)=O)c2ccc(C(=O)NO)cc2)cc1
3. CC(C)(C)OC(=O)N(Cc1ccc(C(C)(C)C)cc1)c1ccc(C(=O)NO)cc1

110 nM
27.7 nM
28.2 nM
